# Assayed system: T1, PSD-95 PDZ2 domain (residues 154-249) (human, UniProt P78352 154-249)
# T1 construct: Gly-Pro left at the N-terminus after HRV 3C cleavage of the tag; PSD-95, human, PDZ2, residues 154-249 of UniProt P78352 [197-292 of P78352-2]; Vector pOPINF; source: E. coli BL21(DE3), purified (Ni-NTA, HRV 3C tag cleavage, negative Ni-NTA, Superdex200 SEC); not shown: His6, N-terminal, cleaved
# T1 sequence (P78352 other isoform, or with tags, fused parts or gaps): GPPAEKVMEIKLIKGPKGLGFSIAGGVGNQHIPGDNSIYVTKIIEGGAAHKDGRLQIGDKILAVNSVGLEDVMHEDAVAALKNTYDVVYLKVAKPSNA
# Experimental details: ITC; 5 mM RRESEI in the syringe, PDZ1-2, PDZ1 or PDZ2 in the cell at nominal 0.13 mM; 25°C; 20 mM Tris-HCl, 150 mM NaCl, pH8.5; MicroCal VP-ITC; PDZ1-2 fitted assuming a single class of sites
# Condition: both partners purified
Property: pKd
Just so you know, pKd here is -log10 of the concentration in molar units; reply with that number alone.

Need pKd, item RRESEI (last 6 residues of the inwardly rectifying potassium channel Kir2.1 (C-terminus, type I PDZ motif ESEI); also called RRESEI ligand; ligand peptide; source: synthetic peptide, 98% purity (Peptide Protein Research Ltd.)) [RRESEI peptide (last 6 residues of Kir2.1)]
4.22
